- tested target: T1, 4H370-bA
- T1 chain: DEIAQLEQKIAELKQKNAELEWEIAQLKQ
- method summary: two-hybrid library CCNG1;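 also: natural log of median RNA to DNA barcode read ratio; higher means stronger binding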
readout type: interaction score
Number only, please.

- DEIAQLEQKIAELKQKNAELEWEIAQLKQ [4H370-bA]: 1.12

Indicate its recorded interaction score; the binder in question is DENAQLEQKNAELEQKIAELEWKIAQLKQ [4H1446-bA]
0.183

Provide measured interaction score value, entry: DKIAQLKQEIAELEQEIAELKWKNAQLKQ [4H2576-bA]
1.32

Entry DKIAQLKQEIAELKQKIAELKWENAQLEQ [4H2667-bA] needs its interaction score filled in; supply it.
-0.0583

// Input: DENAQLKQKIAELEQKNAELEWKIAQLEQ [4H1845-bA] . Output its interaction score only.
-0.74

State its interaction score for this binder: DKIAQLKQENAELEQEIAELKWEIAQLEQ [4H2697-bA]
-1.13

Please report the measured interaction score for DKNAQLKQEIAELEQENAELEWKIAQLKQ [4H3606-bA]
1.25

Give interaction score for DKNAQLEQEIAELKQKNAELEWKIAQLEQ [4H3189-bA]
-0.547

Give recorded interaction score. DEIAQLEQKIAELKQEIAELKWENAQLEQ [4H331-bA]
-0.724

Return reported interaction score. Input binder: DENAQLEQENAELEQKIAELKWEIAQLEQ [4H1193-bA]
-1.27

Please supply the value of reported interaction score for the item DKIAQLKQEIAELEQKNAELEWEIAQLKQ [4H2610-bA]
-1.17

Annotate the binder DEIQQLEQKIQELKQENQELKWEIQELKQ [4H346-bN] with its measured interaction score.
0.693

Respond only with interaction score recorded for DENAQLEQKIAELEQKIAELKWKNAQLKQ [4H1328-bA]
-0.958

Input DENAQLEQKIAELKQENAELKWEIAQLEQ [4H1369-bA] , output reported interaction score.
-1.03
